Test system: BaF3
Assay: Antiproliferative activity against mouse BaF3 cells stably expressing KIF5B-RET incubated for 72 hrs by CCK8 assay
Assay type: functional, cell-based
Settings: BaF3, 72 h
value-type: pIC50
Answers are plain numbers, as −log10 of the molar value.

| compound | value-type | observed-measurement |
| --- | --- | --- |
| COc1ccc(CN2C3CC2CN(c2ccc(-c4cc(N5CCN(C6CN(c7ccc8c(c7)C(=O)N(C7CCC(=O)NC7=O)C8=O)C6)CC5)cn5ncc(C#N)c45)cn2)C3)cn1 (configuration not stated) | pIC50 | 8.55 |

Below are some compounds; for each one, tell me its pIC50.
1. COc1ccc(CN2C3CC2CN(c2ccc(-c4cc(N5CCN(C(=O)CNc6ccc7c(c6)C(=O)N(C6CCC(=O)NC6=O)C7=O)CC5)cn5ncc(C#N)c45)cn2)C3)cn1 (configuration not stated)
2. COc1ccc(CN2C3CC2CN(c2ccc(-c4cc(N5CCC(N6CCN(C(=O)CNc7cccc8c7C(=O)N(C7CCC(=O)NC7=O)C8=O)CC6)CC5)cn5ncc(C#N)c45)cn2)C3)cn1 (configuration not stated)
3. COc1ccc(CN2C3CC2CN(c2ccc(-c4cc(N5CCNCC5)cn5ncc(C#N)c45)cn2)C3)cn1
4. COc1ccc(CN2C3CC2CN(c2ccc(-c4cc(N5CCN(CC6CN(c7ccc8c(c7)C(=O)N(C7CCC(=O)NC7=O)C8=O)C6)CC5)cn5ncc(C#N)c45)cn2)C3)cn1 (configuration not stated)
5. COc1ccc(CN2C3CC2CN(c2ccc(-c4cc(N5CCN(C(=O)CCCCCCCNc6ccc7c(c6)C(=O)N(C6CCC(=O)NC6=O)C7=O)CC5)cn5ncc(C#N)c45)cn2)C3)cn1 (configuration not stated)
6. COc1ccc(CN2C3CC2CN(c2ccc(-c4cc(N5CCC(N6CCN(C(=O)CCCNc7cccc8c7C(=O)N(C7CCC(=O)NC7=O)C8=O)CC6)CC5)cn5ncc(C#N)c45)cn2)C3)cn1 (configuration not stated)
7. COc1ccc(CN2C3CC2CN(c2ccc(-c4cc(N5CCC(N6CCNCC6)CC5)cn5ncc(C#N)c45)cn2)C3)cn1
8. COc1ccc(CN2C3CC2CN(c2ccc(-c4cc(N5CCN(C(=O)CNc6cccc7c6C(=O)N(C6CCC(=O)NC6=O)C7=O)CC5)cn5ncc(C#N)c45)cn2)C3)cn1 (configuration not stated)

1: 7.78; 2: 7.84; 3: 8.25; 4: 8.72; 5: 8.24; 6: 8.60; 7: 8.37; 8: 7.72

Give measured pIC50 for every item shown.
1. COc1ccc(CN2C3CC2CN(c2ccc(-c4cc(N5CCC(N6CCN(C(=O)CCCCCNc7cccc8c7C(=O)N(C7CCC(=O)NC7=O)C8=O)CC6)CC5)cn5ncc(C#N)c45)cn2)C3)cn1 (configuration not stated)
2. COc1ccc(CN2C3CC2CN(c2ccc(-c4cc(N5CCN(C(=O)CCCCCNc6cccc7c6C(=O)N(C6CCC(=O)NC6=O)C7=O)CC5)cn5ncc(C#N)c45)cn2)C3)cn1 (configuration not stated)
3. COc1ccc(CN2C3CC2CN(c2ccc(-c4cc(N5CCN(CCC(=O)N[C@H](C(=O)N6C[C@H](O)C[C@H]6C(=O)N[C@@H](C)c6ccc(-c7scnc7C)cc6)C(C)(C)C)CC5)cn5ncc(C#N)c45)cn2)C3)cn1

[8.74, 8.21, 7.06]
